- Read-out: cysteine-aspartic acid protease (CASP8), CASP8 (gene 841)
- methodDescription: LTEA_HepaRG_CASP8: Life Technologies and Expression Analysis (LTEA) Assay for cysteine-aspartic acid protease (CASP8) using HepaRG (AID 2283480)
- experimentalSetup: mRNA level, 48 h; actives raise or lower the signal
Activity calls are given as the source filed them. How the source made its calls: active means hit-call score of the fitted dose curve at least 0.9, where 1 is the maximum; inactive means score below 0.9.
quantityMeasured: outcome

Example entries begin here.
## Task Note outcome for the compound shown: `CN(C)N=O`
## Result inactive

## Task Note outcome for the compound shown: `ClCC(Cl)CCl`
## Result inactive

## Task Note outcome for the compound shown: `C=C(C)C(=O)[O][Sn]([CH2]CCC)([CH2]CCC)[CH2]CCC`
## Result inactive

## Task Note outcome for the compound shown: O=C1C2(Cl)C3(Cl)C4(Cl)C(Cl)(Cl)C5(Cl)C3(Cl)C1(Cl)C5(Cl)C24Cl (stereo not given)
## Result inactive

Pending compound:
## Task Note outcome for the compound shown: CC12CC1(C)C(=O)N(c1cc(Cl)cc(Cl)c1)C2=O (stereo not given)
## Result inactive

====

- methodDescription: BSK_hDFCGF_SRB: Viability Assessment in the BioMAP Diversity Plus: hDFCGF Assay (AID 2283061);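 further: cells exposed to compound for 24 h before the read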
- experimentalSetup: primary human foreskin fibroblasts
Calls of active or inactive are those of the source. Rule for the calls: active = hit-call score of the fitted dose curve at least 0.9, where 1 is the maximum; inactive = score below 0.9.
quantityMeasured: AC50

## Task Note AC50 for the compound shown: CC(=O)C(Cl)C(=O)N(C)C (stereo unspecified)
## Result inactive

## Task Note AC50 for the compound shown: CCCCC(CC)CO[N+](=O)[O-] (stereo unspecified)
## Result inactive

## Task Note AC50 for the compound shown: `O=C(OC1CCCCC1)c1ccccc1C(=O)OC1CCCCC1`
## Result 9.82 µM (active)

## Task Note AC50 for the compound shown: `Cc1ccccc1N`
## Result inactive

## Task Note AC50 for the compound shown: `O=C(O)C(F)(F)C(F)(F)C(F)(F)C(F)(F)C(F)(F)C(F)(F)F`
## Result inactive

---
## Task Note AC50 for the compound shown: CC(=O)OC(c1ccccc1)C(Cl)(Cl)Cl (stereo unspecified)
## Result inactive

## Task Note AC50 for the compound shown: `CCNc1nc(NC(C)(C)C)nc(SC)n1`
## Result inactive

====

- Read-out: Hypoxia-inducible factor 1-alpha (Homo sapiens)
- methodDescription: LTEA_HepaRG_HIF1A: Life Technologies and Expression Analysis (LTEA) Assay for Hypoxia-inducible factor 1 (HIF1A) Trancription factor using HepaRG (AID 2283503);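 further: HIF1A transcript by TaqMan qRT-PCR normalized to ACTB GAPDH and POLR2A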
- experimentalSetup: mRNA level, 48 h; actives raise or lower the signal
- Description: LTEA_HepaRG is a cell based, multiplexed-readout assay that uses HepaRG, a human liver cell line, with measurements taken at 48 hours after chemical dosing on a 96-well plate.LTEA_HepaRG_HIF1A is one of 102 assay component(s) measured in the LTEA HepaRG cell culture assay. It is a marker of Cell proliferation, survival, death.Data from the assay component LTEA_HepaRG_HIF1A was analyzed into 1 endpoint. […]
The source made the active and inactive calls. How the source made its calls: active means hit-call score of the fitted dose curve at least 0.9, where 1 is the maximum; inactive means score below 0.9.
Choose the fitting class; nothing outside label 1 for active, label 0 for inactive is accepted.

## Task Tell me the recorded outcome of this test for `CCOP(=S)(OCC)Oc1nc(Cl)c(Cl)cc1Cl` .
## Result label 0

## Task Tell me the recorded outcome of this test for `O=C(Nc1ccc2[nH]ccc2c1)c1cc2cc(F)ccc2n1Cc1cccc(F)c1` .
## Result label 1

## Task Tell me the recorded outcome of this test for `CC(C)(OO)c1ccccc1` .
## Result label 0

## Task Tell me the recorded outcome of this test for `O=C(O)C(F)(F)C(F)(F)C(F)(F)C(F)(F)C(F)(F)C(F)(F)C(F)(F)C(F)(F)C(F)(F)C(F)(F)F` .
## Result label 0

## Task Tell me the recorded outcome of this test for `CC(C)(C)CC(C)(C)c1ccc(O)cc1` .
## Result label 0

## Task Tell me the recorded outcome of this test for `CN(C)N=O` .
## Result label 0

## Task Tell me the recorded outcome of this test for `CCOP(=S)(OCC)SCSP(=S)(OCC)OCC` .
## Result label 0

## Task Tell me the recorded outcome of this test for `CCC(C)(C)c1ccc(O)c(C(C)(C)CC)c1` .
## Result label 0

## Task Tell me the recorded outcome of this test for O=C1C2(Cl)C3(Cl)C4(Cl)C(Cl)(Cl)C5(Cl)C3(Cl)C1(Cl)C5(Cl)C24Cl (centres undefined) .
## Result label 1

====

- Read-out: Vascular cell adhesion molecule 1 (VCAM1), VCAM1 (gene 7412)
- methodDescription: BSK_4H_VCAM1: BioMAP Diversity Plus: 4H Assay for Vascular cell adhesion molecule 1 (VCAM1) Biomarker Activity (AID 2283033);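 on outcome: cell-surface VCAM-1 protein measured by ELISA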
- experimentalSetup: primary human endothelial cells (HUVEC); actives raise or lower the signal
The source made the active and inactive calls. How the source made its calls: active means hit-call score of the fitted dose curve at least 0.9, where 1 is the maximum; inactive means score below 0.9.
Choose the fitting class; nothing outside 1.0 (active), 0.0 (inactive) is accepted.

## Task Tell me the recorded outcome of this test for `CC(C)c1ccc(CO)cc1` .
## Result 0.0

## Task Tell me the recorded outcome of this test for `C[C@@H]1C[C@@H]([C@H](O)CC2CC(=O)NC(=O)C2)C(=O)[C@@H](C)C1` .
## Result 1.0

## Task Tell me the recorded outcome of this test for `CCCCCCCCc1ccc(O)cc1` .
## Result 1.0

## Task Tell me the recorded outcome of this test for `COC(=O)c1sccc1S(=O)(=O)NC(=O)Nc1nc(C)nc(OC)n1` .
## Result 0.0

## Task Tell me the recorded outcome of this test for CC(=O)OC(c1ccccc1)C(Cl)(Cl)Cl (centres undefined) .
## Result 0.0

## Task Tell me the recorded outcome of this test for O=C1C2(Cl)C3(Cl)C4(Cl)C(Cl)(Cl)C5(Cl)C3(Cl)C1(Cl)C5(Cl)C24Cl (centres undefined) .
## Result 1.0

## Task Tell me the recorded outcome of this test for `Oc1ccc(-c2ccccc2)cc1` .
## Result 0.0

## Task Tell me the recorded outcome of this test for `BrCCBr` .
## Result 0.0

## Task Tell me the recorded outcome of this test for `O=c1[nH]c(=O)[nH]c(=O)[nH]1` .
## Result 0.0

## Task Tell me the recorded outcome of this test for `CC1(C)Cc2cccc(O)c2O1` .
## Result 0.0

## Task Tell me the recorded outcome of this test for `Cn1sc(Cl)cc1=O` .
## Result 1.0

## Task Tell me the recorded outcome of this test for ClC1(Cl)C2(Cl)C3(Cl)C4(Cl)C(Cl)(Cl)C5(Cl)C3(Cl)C1(Cl)C5(Cl)C24Cl (centres undefined) .
## Result 0.0

## Task Tell me the recorded outcome of this test for `Cc1ccccc1N` .
## Result 0.0

## Task Tell me the recorded outcome of this test for `O=[N+]([O-])c1ccc2c3c(cccc13)CC2` .
## Result 0.0

## Task Tell me the recorded outcome of this test for `COC[C@H](C)N(C(=O)CCl)c1c(C)csc1C` .
## Result 0.0

## Task Tell me the recorded outcome of this test for `O=[N+]([O-])c1ccc(O)c([N+](=O)[O-])c1` .
## Result 0.0

## Task Tell me the recorded outcome of this test for `NC(=O)O` .
## Result 0.0

## Task Tell me the recorded outcome of this test for `CC(C)(C)CC(C)(C)c1ccc(O)cc1` .
## Result 1.0

## Task Tell me the recorded outcome of this test for `O=C(O)C(Cl)(Cl)Cl` .
## Result 0.0

## Task Tell me the recorded outcome of this test for `CC(C)(OO)c1ccccc1` .
## Result 0.0

## Task Tell me the recorded outcome of this test for CCOP(=S)(OCC)Oc1ccc(S(C)=O)cc1 (centres undefined) .
## Result 0.0

## Task Tell me the recorded outcome of this test for CC(=O)C(Cl)C(=O)N(C)C (centres undefined) .
## Result 1.0

## Task Tell me the recorded outcome of this test for `COc1cc(-c2ccc(N)c(OC)c2)ccc1N` .
## Result 0.0

## Task Tell me the recorded outcome of this test for `CC(C)(C)c1cc(O)ccc1O` .
## Result 1.0

## Task Tell me the recorded outcome of this test for `ClC(Cl)=C(Cl)C(Cl)=C(Cl)Cl` .
## Result 1.0

## Task Tell me the recorded outcome of this test for `C(=NC1CCCCC1)=NC1CCCCC1` .
## Result 1.0

## Task Tell me the recorded outcome of this test for `Oc1cccc2cccnc12` .
## Result 1.0

## Task Tell me the recorded outcome of this test for `COC(=O)Cc1ccccc1` .
## Result 0.0

## Task Tell me the recorded outcome of this test for `O=C(O)C(F)(F)C(F)(F)C(F)(F)C(F)(F)C(F)(F)C(F)(F)F` .
## Result 0.0

====

- targetUnderTest: Oxysterols receptor LXR-alpha (Homo sapiens) (UniProt Q13133)
- Sequence (Q13133 whole entry, looked up): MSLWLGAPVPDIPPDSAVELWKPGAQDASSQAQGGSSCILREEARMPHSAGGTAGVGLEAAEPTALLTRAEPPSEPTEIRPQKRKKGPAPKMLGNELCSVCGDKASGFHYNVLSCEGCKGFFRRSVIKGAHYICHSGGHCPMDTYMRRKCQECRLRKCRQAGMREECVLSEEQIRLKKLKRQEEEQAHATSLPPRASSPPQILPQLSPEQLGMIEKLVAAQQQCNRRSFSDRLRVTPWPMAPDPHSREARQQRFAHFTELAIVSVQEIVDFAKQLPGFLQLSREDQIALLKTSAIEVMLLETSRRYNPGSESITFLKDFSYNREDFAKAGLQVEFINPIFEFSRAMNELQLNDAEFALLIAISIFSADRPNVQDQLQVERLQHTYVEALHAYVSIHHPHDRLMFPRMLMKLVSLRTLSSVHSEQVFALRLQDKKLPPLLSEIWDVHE
- methodDescription: ATG_LXRa_TRANS: Attagene TRANS-FACTORIAL HepG2 Assay for human Liver X Receptor alpha (LXRa) (AID 2282980)
- experimentalSetup: HepG2 Attagene TRANS reporter, LXRa transactivation
Records with an inconclusive call do not appear. Activity calls are given as the source filed them. Rule for the calls: active = hit-call score of the fitted dose curve at least 0.9, where 1 is the maximum; inconclusive = response in the unintended direction; inactive = score below 0.9.
Choose the fitting class; nothing outside T = active, F = inactive is accepted.

## Task Tell me the recorded outcome of this test for CCC(C)c1cccc(C(C)CC)c1O (configuration not stated) .
## Result T

## Task Tell me the recorded outcome of this test for `CN(C)P(=O)(N(C)C)N(C)C` .
## Result F

## Task Tell me the recorded outcome of this test for `C(=NC1CCCCC1)=NC1CCCCC1` .
## Result F

## Task Tell me the recorded outcome of this test for `COC(=O)c1sccc1S(=O)(=O)NC(=O)Nc1nc(C)nc(OC)n1` .
## Result F

## Task Tell me the recorded outcome of this test for `CCN1CCC2(CC1)COc1cc3c(cc12)N(C(=O)c1ccc(-c2ccc(-c4nnc(C)o4)cc2C)cc1)CC3` .
## Result F

## Task Tell me the recorded outcome of this test for `BrCCBr` .
## Result F

## Task Tell me the recorded outcome of this test for CCSC(C)CC1CC(=O)C(C(CC)=NOC/C=C/Cl)=C(O)C1 (configuration not stated) .
## Result F
